# Tested on: SNB-19 CNS
# ASSAY_NOTES: NCI-60 one-dose screen, 48 h (100 = growth as untreated, 0 = no growth, -100 = all killed)
# CONDITIONS: 10 µM
This is part of a sample that, as a whole, favours compounds with a hit. Of some 83,000 tested, about 20% had one in any assay.
One threshold, 90%, splits the recorded growth values: lower ones are yes (1), equal or higher ones are no (0).

# count of solved cases: 5
Q: Consider the compound `Cc1c2c(nn1C(=O)c1nn(-c3ccc(Cl)cc3)cc1O)-c1ccccc1CC2` . Is its growth strictly less than 90%?
Result: yes (1)

Q: Consider the compound CCCCN1C(=O)CC(SC2CC(=O)N(CCCC)C2=O)C1=O (stereo not drawn) . Is its growth strictly less than 90%?
Result: no (0)

Q: Consider the compound CCOC(=O)/C(=C(\C)N)C1CC(=O)NC1=O (stereo not drawn) . Is its growth strictly less than 90%?
Result: no (0)

Q: Consider the compound C=C(NC(=O)C(=C)NC(=O)c1csc(C2=NC3c4csc(n4)C4NC(=O)c5csc(n5)C(C(C)(O)C(C)O)NC(=O)C5CSC(=N5)C(=CC)NC(=O)C(C(C)O)NC(=O)c5csc(n5)C3(CC2)NC(=O)C(C)NC(=O)C(=C)NC(=O)C(C)NC(=O)C(C(C)CC)NC2C=Cc3c(C(C)O)cc(nc3C2O)C(=O)OC4C)n1)C(N)=O (stereo not drawn) . Is its growth strictly less than 90%?
Result: yes (1)

Q: Consider the compound `C=CCNCCN1C(=O)c2ccc3c4c(ccc(c24)C1=O)C(=O)N(CCNCC=C)C3=O` . Is its growth strictly less than 90%?
Result: yes (1)

Now take the following compound into account.
Q: Consider the compound `CN1CCN(C2=Nc3ccccc3Oc3ccc(Cl)cc32)CC1` . Is its growth strictly less than 90%?
Result: no (0)

====

# System: A549/ATCC NSCLC
# ASSAY_NOTES: NCI-60 one-dose screen, 48 h (100 = growth as untreated, 0 = no growth, -100 = all killed)
# CONDITIONS: 10 µM
Compounds without any hit were thinned out: in the full panel of roughly 83,000, 20% have a hit. The source made the active and inactive calls. How the source made its calls: active means growth percent below 10; inactive means the rest.
Kindly supply the reported growth values for the records listed here.

Check out these entries, answers already filled in.
Q: For `Cc1cc(C)nc(NS(=O)(=O)c2ccc(Nc3nc4nc(NCc5ccccc5)nc(-c5ccc(O)cc5)c4c(=O)[nH]3)cc2)n1` , what is its reported growth?
Result: 43.9% (inactive)

Q: For CC(=O)C1CCC2C3CC=C4CC(SC(=N)N)CCC4(C)C3CCC12C (stereo not given) , what is its reported growth?
Result: 47.5% (inactive)

Q: For `O=C1CCn2c1c(O)c1ccccc1c2=O` , what is its reported growth?
Result: 100% (inactive)

Q: For `COc1ccc(-c2nn(-c3cccc(Cl)c3)cc2-c2c(C#N)c(=O)n3[nH]c(-c4ccc(C)cc4)nc3c2C#N)cc1` , what is its reported growth?
Result: 50.5% (inactive)

---
Q: For `CN(C)CCOc1cccc(NC2=C(Cl)C(=O)C(Nc3cccc(OCCN(C)C)c3)=C(Cl)C2=O)c1` , what is its reported growth?
Result: 57.9% (inactive)

====

Kindly supply the reported growth values for the records listed here.
# Test system: PC-3 prostate
# ASSAY_NOTES: NCI-60 one-dose screen, 48 h (100 = growth as untreated, 0 = no growth, -100 = all killed)
# CONDITIONS: 10 µM
About 83,000 compounds went through this panel and 20% of them were active in at least one assay; those are over-represented in the sample as a whole. The source made the active and inactive calls. Rule for the calls: active = growth percent below 10; inactive = the rest.

Check out these entries, answers already filled in.
Q: For `COc1ccc(-c2csc(NC(=O)c3ccc(Cc4n[nH]c(=O)c5cccnc45)cc3)n2)cc1` , what is its reported growth?
Result: 77.9% (inactive)

Q: For CC[C@@H](C(=O)[C@@H](C)[C@@H](O)[C@H](C)[C@@H]1O[C@@H]([C@@H](CC)C(=O)N(CC)CC)CC[C@@H]1C)C1O[C@]2(C=CC(=O)[C@]3(CC[C@@](C)([C@H]4CC[C@](O)(CC)[C@H](C)O4)O3)O2)[C@H](C)C[C@@H]1C (some centres undefined) , what is its reported growth?
Result: 7.83% (active)

Q: For `Nc1nc(N)c(N)c(Nc2ccc(CCO)cc2)n1` , what is its reported growth?
Result: 96.8% (inactive)

Q: For `CN1C(C(=O)Nc2ccccn2)=C(O)c2sc(Cl)cc2S1(=O)=O` , what is its reported growth?
Result: 87.9% (inactive)

Q: For COc1cc(C2CC(c3cc(Cl)c(C)cc3O)=NN2c2ccc(S(N)(=O)=O)cc2)cc(OC)c1OC (centres undefined) , what is its reported growth?
Result: 0.104% (active)

For each listed entry, give its growth.
1. CN(C)CCCSc1ccccc1NC1=C(Cl)C(=O)C(Nc2ccccc2SCCCN(C)C)=C(Cl)C1=O
2. COc1ccc(C(c2ccc(OCCN(C)C)cc2)c2cc3ccccc3c3ccccc23)cc1 (centres undefined)
3. Nc1nc(Cn2c(-c3nonc3N)nc3ccccc32)nc(N2CCCCC2)n1

Result:
1: 42.8% (inactive); 2: 60.7% (inactive); 3: 78% (inactive)

Q: For CC(=O)C1N=NCC1c1ccccc1 (centres undefined) , what is its reported growth?
Result: 95.5% (inactive)
